Assay: Inhibition of the release of Alpha-amylase from rat pancreatic acinar cells.
Reported Endpoint: IC50 (nM)
Quick note: give the figure in nM, leave out the unit.

# example entries with known answers
[
  {
    "Compound": "CCN(CC)CCOC(=O)C(C)(c1ccccc1)C1CCCCC1 (centres undefined)",
    "IC50 / nM": 52
  },
  {
    "Compound": "CCN(CC)CCCCCOC(=O)C(C)(c1ccccc1)C1CCCCC1 (centres undefined)",
    "IC50 / nM": 2700
  },
  {
    "Compound": "CN(C)CCCOC(=O)C(C)(c1ccccc1)C1CCCCC1 (centres undefined)",
    "IC50 / nM": 10
  }
]

Field: next compound
Enquiry: IC50 lookup needed for CCN(CC)CCCOC(=O)C(C)(c1ccccc1)C1CCCCC1 (centres undefined) , thanks.
Return: 21
